tgt: T1, human CD3e/g antigen (ACRO, catalog number CDG-H52W5) (human, UniProt P07766 23-126; P09693 23-116)
T1 construct: Bought reagent used as the Biacore analyte; also called hCD3e/g
test-description: SPR (Biacore 8K), antibody captured via anti-human Fc
kon by entry:
// return numeric value only (unit: M⁻¹ s⁻¹, not printed)

Past entries and their recorded results:
CAb001 (antibody, V domains shown, Chimeric: mouse variable regions linked to human light and heavy constant regions; constant regions not specified) VH: QVQLQQSGPELVKPGASVKISCKASGYSFTNYYMHWVKQRPGQGLEWIGWTYPGNNNIKYNEKFKGKATLTADTSSSTAYMQLSSLTSEDSAVYYCARDGYGYYFFDYWGQGIILTVSS VL: DIVMSQSPSSLAVSAGEKVTMSCKSSQSLLNNRTRKNYLAWYQQKPGQSPKLLIYWASTRESGVPDRFTGSGSGTDFTLTISSVQAEDLAIYYCKQSYTLRTFGGGTKLAIK = 267000
hAb001-21 (antibody, V domains shown, Humanized; constant regions not specified) VH: QVQLVQSGAEVKKPGASVKVSCKASGYSFTNYYMHWVRQAPGQRLEWIGWTYPGNNNIKYNEKFKGRVTITADTSASTAYMELSSLRSEDTAVYYCARDGYGYYFFDYWGQGTLVTVSS VL: DIVMTQSPDSLAVSLGERATINCKSSQSLLNNRTRKNYLAWYQQKPGQPPKLLIYWASTRESGVPDRFSGSGSGTDFTLTISSLQAEDVAVYYCKQSYTLRTFGGGTKLEIK = 398000

Request: Fill in kon for record hAb001-28 (antibody, V domains shown, Humanized; constant regions not specified) VH: QVQLVQSGAEVKKPGASVKVSCKASGYSFTNYYMHWVRQAPGQRLEWIGWTYPGNNNIKYNEKFKGRATITADTSASTAYMELSSLRSEDTAVYYCARDGYGYYFFDYWGQGTLVTVSS VL: DIVMTQSPDSLAVSLGERATMSCKSSQSLLNNRTRKNYLAWYQQKPGQPPKLLIYWASTRESGVPDRFTGSGSGTDFTLTISSLQAEDVAVYYCKQSYTLRTFGGGTKLEIK
Result: 365000
